These data points were gathered from PubChem BioAssay AID588620.

Below, each entry is listed alongside its reported pEC50.
# Test system: S. cerevisiae AD/pABC3 compound autofluorescence, flow cytometry
# test-summary: concentration-dependent intrinsic compound fluorescence, S. cerevisiae AD/pABC3, flow cytometry, Cherry Pick1 hits, artefact control for antifungal efflux pump inhibitor project, dose response (AID 588620);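 also: red emission of unstained cells excited at 488 nm measured in PE-Texas Red channel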
The scale used: pEC50 is minus the common logarithm of the concentration in molar units.

>  <compound>
O=C1/C(=C/c2ccco2)Oc2c1ccc(O)c2CN1CCCCC1

>  <measured-on>
S. cerevisiae AD/pABC3 compound autofluorescence, flow cytometry

>  <pEC50>
5.22

$$$$
>  <compound>
O=[N+]([O-])c1ccc(N2N=C(c3ccco3)CC2c2ccccc2)cc1 (configuration not stated)

>  <measured-on>
S. cerevisiae AD/pABC3 compound autofluorescence, flow cytometry

>  <pEC50>
4.74

$$$$
>  <compound>
C=CCn1c(=O)[nH]c2nc3cc(N=CN(C)C)c(C)cc3nc2c1=O

>  <measured-on>
S. cerevisiae AD/pABC3 compound autofluorescence, flow cytometry

>  <pEC50>
5.29

$$$$
>  <compound>
COc1ccccc1-c1nc(C(N)=O)c2[nH]c(=O)n(-c3cccc(C)c3)c2n1

>  <measured-on>
S. cerevisiae AD/pABC3 compound autofluorescence, flow cytometry

>  <pEC50>
4.96

$$$$
>  <compound>
COc1cc2sc(-c3ccccc3OC)c(-c3ccc(OCCN4CCOCC4)cc3)c2cc1OC

>  <measured-on>
S. cerevisiae AD/pABC3 compound autofluorescence, flow cytometry

>  <pEC50>
4.76

$$$$
>  <compound>
Cc1ccc(/C=C2\CCC3=C2OC(N)=C(C#N)C3c2ccc(C)cc2)cc1 (configuration not stated)

>  <measured-on>
S. cerevisiae AD/pABC3 compound autofluorescence, flow cytometry

>  <pEC50>
5.04

$$$$

Assay S. cerevisiae AD/pABC3 compound autofluorescence, flow cytometry, sample Cc1nn(Cc2cccc(C(=O)NC34CC5CC(CC(C5)C3)C4)c2)c(C)c1Br , pEC50 read: 5.35

Assay S. cerevisiae AD/pABC3 compound autofluorescence, flow cytometry, sample Cc1ccc2nc(/C(C#N)=C/c3ccc(O)c(O)c3)[nH]c2c1 , pEC50 read: 5.27

====

Below, each entry is listed alongside its reported EC50.
# Test system: S. cerevisiae AD/pABC3 compound autofluorescence, flow cytometry
# test-summary: concentration-dependent intrinsic compound fluorescence, S. cerevisiae AD/pABC3, flow cytometry, Cherry Pick1 hits, artefact control for antifungal efflux pump inhibitor project, dose response (AID 588620);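 also: red emission of unstained cells excited at 488 nm measured in PE-Texas Red channel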

Example entries begin here.
>  <smiles>
C[C@@]12C(=O)Nc3cc(F)c(F)cc3C(=O)N1[C@H]1c3cc(Cl)ccc3OC[C@@H]1[C@@H]2c1ccccc1

>  <measured-on>
S. cerevisiae AD/pABC3 compound autofluorescence, flow cytometry

>  <EC50>
12.3 µM

$$$$
>  <smiles>
Cc1nc2ccccc2n1CCc1nc2c3ccccc3nc(SCC(=O)NCc3ccco3)n2n1

>  <measured-on>
S. cerevisiae AD/pABC3 compound autofluorescence, flow cytometry

>  <EC50>
12.2 µM

$$$$
>  <smiles>
COc1ccc(OC)c2c1C(=O)C(Cl)=C(Cl)C2=O

>  <measured-on>
S. cerevisiae AD/pABC3 compound autofluorescence, flow cytometry

>  <EC50>
0.495 µM

$$$$

Now examine the next entry.
Entry under test: CCOc1ccc(NC(=O)CSc2nnc(Cc3cccn3C)n2-c2ccc(F)cc2)cc1 . Its EC50 was 13.6 µM
